Below, each entry is listed alongside its reported pEC50.
Test system: SMN2-linked luciferase-reporter gene construct
Test: SMN Splice Reporter Assay (SMN2-linked luciferase reporter)
Format: cell-based
Conditions: cervical carcinoma cell lines, SMN2 splice luciferase reporter
pEC50: −log10 of the molar value.
OUTCOME MEASURE: pEC50

>>> experimental_result("Cn1ccc2ccc(N3Cc4cccc(Br)c4C3=O)cc21 [Example 120281]")
6.40
>>> experimental_result("O=C1c2ccccc2CN1c1ccc(Br)nc1 [Example 112649]")
4.74
>>> experimental_result("Cn1ccc2cc(N3Cc4ccc(Cl)cc4C3=O)ccc21 [Example 120599]")
7.21
>>> experimental_result("O=C1c2cc(O)ccc2CN1c1ccc2ccsc2c1 [Example 122556]")
6.86
>>> experimental_result("COc1ccc2c(c1)CN(c1ccc3ccn(C)c3c1)C2=O [Example 119870]")
6.62
>>> experimental_result("O=C1c2cc(OC(F)F)ccc2CN1c1ccc2ccsc2c1 [Example 121512]")
6.65
>>> experimental_result("COc1ccc2c(c1)C(=O)N(c1ccc3cc[nH]c3c1)C2 [Example 119869]")
6.97
>>> experimental_result("COC(=O)C1CCc2cc(N3Cc4ccccc4C3=O)ccc21 (centres unmarked) [Example 113487]")
6.84
>>> experimental_result("COc1ccc2c(c1)C(=O)N(c1ccc3ccoc3c1)C2 [Example 118740]")
7.66
>>> experimental_result("O=C1c2cc(O)ccc2CN1c1ccc2sccc2c1 [Example 122430]")
7.07
>>> experimental_result("COc1cccc2c1C(=O)N(c1ccc3c(ccn3C)c1)C2 [Example 120125]")
6.27
>>> experimental_result("Cc1ccc2c(c1)C(=O)N(c1ccc3c(ccn3C)c1)C2 [Example 121507]")
7.47
>>> experimental_result("Cn1ccc2cc(N3Cc4cc5c(cc4C3=O)OCCO5)ccc21 [Example 118275]")
7.85
>>> experimental_result("Cn1ccc2cc(N3Cc4ccc(F)cc4C3=O)ccc21 [Example 121925]")
6.71
>>> experimental_result("O=C1c2cc(OC(F)F)ccc2CN1c1ccc2c(c1)CCC2 [Example 119337]")
6.80
>>> experimental_result("O=C1c2cc3c(cc2CN1c1ccc2ncccc2c1)OCCO3 [Example 120787]")
7.82
>>> experimental_result("COc1ccc2c(c1)C(=O)N(c1ccc3nccnc3c1)C2 [Example 120791]")
7.15
>>> experimental_result("COc1ccc2c(c1)C(=O)N(c1ccc3c(ccn3C(C)=O)c1)C2 [Example 121076]")
7.31
>>> experimental_result("Cn1ccc2cc(N3Cc4ccc(OC(F)F)cc4C3=O)ccc21 [Example 119537]")
6.95
>>> experimental_result("CCCn1ccc2cc(N3Cc4ccc(OC)cc4C3=O)ccc21 [Example 119517]")
6.36

All figures here come from patent US20100267712A1.
